Where these numbers come from: PubChem BioAssay

- MEASURED_TARGET: NADPH oxidase 2 (Homo sapiens)
- ASSAY_DETAILS: NOX2-dependent H2O2 signal modulators, primary screen, NOX inhibitor project, cell-based, HEK293-NOX2, PMA-stimulated, Amplex Red fluorescence (AID 1159)
- TEST_CONDITIONS: 45 min, higher = more signal, called active from +8 up or from −8 down
Reported values of z-score for individual entries
The response must contain the number and no unit.

Observe how each entry below is paired with its result.
* CCOC(=O)C[C@H]1[C@H](OC(=O)Cc2ccc3c(c2)OCO3)[C@@H](NC(=O)c2ccc3ccccc3c2)c2cc(OCCCO)ccc2N1C(=O)c1ccc2ccccc2n1 | 0.0194
* C=C(CCCC)/C(=C/C[C@H](OC(=O)c1ccncc1)c1ccc(CO)o1)c1cnc2ccccc2c1 | 2.49
* COc1ccc(CCNC(=O)[C@@]2(Sc3ccc(C)cc3)CC(=O)N(Cc3ccccc3)[C@@H]2c2ccc(CO)cc2I)cc1 | 1.82

-- ask Looking for the measured z-score of COCCCNC(=O)[C@@]1(Cc2ccccc2)N=C(c2ccc(OCCCO)cc2)O[C@H]1c1ccccc1N=[N+]=[N-] , can you help?
-- reply -0.14

-- ask Further, for CO[C@H]1O[C@H](CO)[C@@H](OC(=O)Nc2ccccc2)[C@H](OC(=O)Nc2ccccc2-c2ccccc2)[C@@H]1OC(=O)Nc1ccccc1-c1ccccc1 ?
-- reply 2.2

-- ask Further, for CC(C)C(=C=CC[C@H](O)c1ccc(OCCO)cc1)C[C@H](O)COCc1ccccc1 ?
-- reply -0.557

-- ask Further, for COc1ccc(C#Cc2ccc3c(c2)[C@]2(C(=O)N3)[C@H](c3ccc(O)cc3)N3[C@H](c4ccccc4)[C@H](c4ccccc4)OC(=O)[C@H]3[C@@H]2C(=O)N2CCN(c3ncccn3)CC2)cc1 ?
-- reply 0.393

---

- ASSAY_DETAILS: cytotoxicity in PAX8-dependent RMG-1 cells, dose response, cell-based, cherry-pick (AID 687029);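 further: cells exposed to compound for 96 hours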
- TEST_CONDITIONS: RMG-1 viability, CellTiterGlo ATP luminescence, 96 h; series mostly up to 35 µM
Measured potencies and affinities stand elsewhere. Calls of active or inactive are those of the source.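 The calls were made as follows: active = signal drop whose fitted half-maximal concentration is at most twice the top valid dose, in every test run; inconclusive = mixed calls across runs, poor fit, or flat 30 to 70% inhibition; inactive = wrong direction, flat within 30%, or potency beyond limit.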
MEASUREMENT_KIND: activity change, negative = inhibition

* C[C@H]1CCCCO[C@H](CN(C)C(=O)C2CCCCC2)[C@@H](C)CN([C@@H](C)CO)C(=O)c2cc(NC(=O)Nc3ccc(F)cc3)ccc2O1 | inactive
* C[C@@H]1CN([C@H](C)CO)C(=O)c2cc(NC(=O)Nc3ccc(C(F)(F)F)cc3)ccc2O[C@@H](C)CCCCO[C@H]1CN(C)C(=O)Nc1ccc(F)cc1 | inactive
* C[C@@H]1CN([C@@H](C)CO)C(=O)c2cc(NS(=O)(=O)c3ccc(Cl)cc3)ccc2O[C@@H](C)CCCCO[C@H]1CN(C)C | inactive

---

- Test system: Inhibin beta A chain (activin A)
- ASSAY_DETAILS: INHBA (activin A) binders on microarrays, primary screen, biochemical, small-molecule microarray, 635 nm fluorescence scan (AID 1107);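 further: mouse activin A protein probed at 4.33 µg/mL on printed slides; score merges bound-protein fluorescence near 667 nm with spot signal-to-noise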
- TEST_CONDITIONS: small-molecule microarray binding, higher = more signal
Reported values of composite z-score for individual entries
The response must contain the number and no unit.

* C[C@@H](OCc1ccccc1)C1NC(=O)[C@@]23C(=O)N[C@@H](Cc4ccccc4)C2[C@H](C)[C@@]2(C)O[C@H]2C3/C=C/C/C=C\CNC(=O)[C@@H]2CCCN2C1=O (some centres undefined) | 1.75
* COCCOC(=O)N1C(=O)[C@@]2(c3cc(C#CCCO)ccc31)[C@H](c1ccccc1OCCO)N1[C@H](c3ccccc3)[C@H](c3ccccc3)OC(=O)[C@H]1[C@@H]2C(=O)NC[C@H](O)c1ccccc1 | 0.274
* COCCCNC(=O)[C@@]1(Cc2ccccc2)N=C(c2ccc(OCCCO)cc2)O[C@H]1c1ccccc1N=[N+]=[N-] | 1.31

Now consider a different compound.
-- ask Looking for the measured composite z-score of C=C(COC)/C(=C/C[C@H](OC(C)=O)c1cccc(OCCO)c1)c1cc(C(=O)OC)ccc1OC , can you help?
-- reply 0.981
